# Target entity: mouse melanocortin-4 receptor (mouse, UniProt P56450 1-332)
# Sequence (P56450 whole entry): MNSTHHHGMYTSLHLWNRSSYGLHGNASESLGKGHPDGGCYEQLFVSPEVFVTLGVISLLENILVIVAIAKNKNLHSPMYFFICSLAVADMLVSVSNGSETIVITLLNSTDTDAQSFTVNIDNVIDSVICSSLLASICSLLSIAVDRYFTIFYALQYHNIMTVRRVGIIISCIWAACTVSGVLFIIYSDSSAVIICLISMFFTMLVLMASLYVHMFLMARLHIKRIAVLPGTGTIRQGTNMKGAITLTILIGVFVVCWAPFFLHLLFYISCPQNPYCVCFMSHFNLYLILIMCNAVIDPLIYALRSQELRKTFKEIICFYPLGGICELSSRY
# Protocol details: cell-based or functional assay
Square brackets hold non-standard residues; d marks the D form. hPhe = N[C@@H](CCc1ccccc1)C(=O)O; Nle = CCCC[C@H](N)C(=O)O; Dap = NC[C@H](N)C(=O)O
Form field: antagonist pA2 (Schild, agonist NDP-MSH) (one value per entry).

{"columns": ["Binder", "Endpoint label", "Test value"],
 "data": [
  ["cyclo(PRFFRS[Nle][dP]) (SMILES CCCC[C@@H]1NC(=O)[C@H](CO)NC(=O)[C@H](CCCNC(=N)N)NC(=O)[C@H](Cc2ccccc2)NC(=O)[C@H](Cc2ccccc2)NC(=O)[C@H](CCCNC(=N)N)NC(=O)[C@@H]2CCCN2C(=O)[C@H]2CCCN2C1=O) [c[Pro-Arg-Phe-Phe-Arg-Ser-Nle-DPro]]", "antagonist pA2 (Schild, agonist NDP-MSH)", 9.6]
]}

input: Fill in: antagonist pA2 (Schild, agonist NDP-MSH) of cyclo(PRF[hPhe][Dap]S[Nle][dP]) (SMILES CCCC[C@@H]1NC(=O)[C@H](CO)NC(=O)[C@H](CN)NC(=O)[C@H](CCc2ccccc2)NC(=O)[C@H](Cc2ccccc2)NC(=O)[C@H](CCCNC(=N)N)NC(=O)[C@@H]2CCCN2C(=O)[C@H]2CCCN2C1=O) [c[Pro-Arg-Phe-hPhe-Dap-Ser-Nle-DPro]] is ___
output: 9.5
